Target: PPAR γ (Homo sapiens, UniProt P37231)
Construct: Following the challenge of the preadipocytes, cells may be lysed with lysis buffer; endogenous in cells; host or cells: preadipocytes
Sequence (P37231 1-505): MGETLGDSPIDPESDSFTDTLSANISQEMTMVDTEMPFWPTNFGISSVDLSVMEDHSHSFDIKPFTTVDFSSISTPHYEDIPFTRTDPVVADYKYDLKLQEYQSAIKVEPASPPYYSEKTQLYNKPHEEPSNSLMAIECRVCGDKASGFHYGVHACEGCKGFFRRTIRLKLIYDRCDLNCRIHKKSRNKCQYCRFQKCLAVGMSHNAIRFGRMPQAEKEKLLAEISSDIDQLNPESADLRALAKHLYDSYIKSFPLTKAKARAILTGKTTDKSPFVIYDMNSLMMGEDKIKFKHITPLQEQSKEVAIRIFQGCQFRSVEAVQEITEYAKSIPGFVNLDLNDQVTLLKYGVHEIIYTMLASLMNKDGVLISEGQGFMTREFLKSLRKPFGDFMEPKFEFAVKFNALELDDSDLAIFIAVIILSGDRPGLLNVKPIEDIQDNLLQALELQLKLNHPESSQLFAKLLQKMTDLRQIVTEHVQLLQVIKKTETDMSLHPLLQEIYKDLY
Assay: aP2 Assay for Agonist (induction of aP2 mRNA production); also: test concentration or dose not given here
Format: cell-based
Conditions: Table 1; fold increase over vehicle in induction of aP2 mRNA production
PROPERTY_NAME: Agonist Intrinsic Activity

1. CCCCCCCCCCN1C(=O)C(CCOc2ccccc2CC(=O)OC)Oc2ccccc21 (centres unmarked)
2. CCCSCCN1C(=O)C(CCOc2ccccc2CC(=O)O)Oc2ccccc21 (centres unmarked)
3. O=C(O)Cc1ccccc1OCCC1Oc2ccccc2N(CCCCCCF)C1=O (single isomer, unassigned) [Compound 92]
Q: Rank the 3 compounds shown above by Agonist Intrinsic Activity, smallest number first. Form field (ranking): labels in requested order.
Ans: 1, 2, 3

A. COC(=O)CCc1ccccc1OCCC1Oc2ccccc2N(Cc2cccc(C(F)(F)F)c2)C1=O (centres unmarked)
B. CCCCCCCCN1C(=O)C(CCOc2ccccc2CC(=O)OC)Oc2ccccc21 (centres unmarked)
Q: Please let me know which one, A or B , has a lower measured Agonist Intrinsic Activity value. Refer to your chosen entry by its label in the reply.
Ans: A
(A: 0.8, B: 1.3)

1. CCCCCCCCCN1C(=O)C(CCOc2ccccc2CC(=O)OC)Oc2ccccc21 (centres unmarked)
2. CCCCCCCN1C(=O)C(CCOc2ccccc2CC(=O)O)Oc2ccccc21 (centres unmarked)
3. COCCCCN1C(=O)C(CCOc2ccccc2C(F)(F)F)Oc2ccccc21 (centres unmarked)
Q: List from greatest to least Agonist Intrinsic Activity. Form field (ranking): labels in requested order.
Ans: 2, 1, 3

----------
target: PPAR γ (Homo sapiens); construct: Following the challenge of the preadipocytes, cells may be lysed with lysis buffer; endogenous in cells; host or cells: preadipocytes; experiment: aP2 Assay for Agonist (induction of aP2 mRNA production); type: cell-based; conditions: Table 1; fold increase over vehicle in induction of aP2 mRNA production; also: test concentration or dose not given here
PROPERTY_NAME: Agonist Intrinsic Activity

A. CC(F)(F)CCCCCN1C(=O)C(CCOc2ccccc2CC(=O)O)Oc2ccccc21 (centres unmarked)
B. COC(=O)Cc1cccc(OCCC2Oc3ccccc3N(Cc3cccc(C(F)(F)F)c3)C2=O)c1 (centres unmarked)
C. CNC(=O)CCCN1C(=O)C(CCOc2ccccc2CC(=O)O)Oc2ccccc21 (centres unmarked)
D. O=C(O)Cc1ccccc1OCCC1Oc2ccccc2N(c2ccc(Cl)c(Cl)c2)C1=O (centres unmarked)
E. O=C(O)Cc1cccc(OCCC2Oc3ccccc3N(Cc3cc(C(F)(F)F)cc(C(F)(F)F)c3)C2=O)c1 (centres unmarked)
Q: Rank the 5 compounds shown above by Agonist Intrinsic Activity, smallest number first. Form field (ranking): labels in requested order.
Ans: B, C, E, D, A
(B: 0.8, C: 4.00, E: 6.8, D: 22.8, A: 40.8)

a. CCCOCCN1C(=O)C(CCOc2ccccc2CC(=O)O)Oc2ccccc21 (centres unmarked)
b. COC(=O)c1ccccc1OCCC1Oc2ccccc2N(Cc2ccc(Cl)cc2)C1=O (centres unmarked)
c. O=C(O)Cc1ccccc1OCCC1Oc2ccccc2N(CC(=O)O)C1=O (centres unmarked) [Compound 46]
Q: Arrange these 3 compounds in increasing order of Agonist Intrinsic Activity. Form field (ranking): labels in requested order.
Ans: b, c, a
(b: 0.7, c: 2, a: 45.9)

----------
biological target: PPAR γ (Homo sapiens); construct: Following the challenge of the preadipocytes, cells may be lysed with lysis buffer; endogenous in cells; host or cells: preadipocytes; assay: aP2 Assay for Agonist (induction of aP2 mRNA production); assay type: cell-based; conditions: Table 1; fold increase over vehicle in induction of aP2 mRNA production; also: test concentration or dose not given here
PROPERTY_NAME: Agonist Intrinsic Activity

Record excerpt, results attached:
COMPOUND | REPORTED_MEASUREMENT
COC(=O)Cc1ccccc1OCCC1Oc2ccccc2N(CC(=O)OC)C1=O (centres unmarked) [Compound 22] | 7.2
O=C([O-])CCc1cccc(OCCC2Oc3ccccc3N(Cc3cccc(C(F)(F)F)c3)C2=O)c1.[Na+] (centres unmarked) [Compound 36] | 11.1
O=C(O)Cc1ccccc1OCCC1Oc2ccccc2N(CCCCCO)C1=O (centres unmarked) [Compound 64] | 3.6

A. CC(C)(C)CCCCN1C(=O)C(CCOc2ccccc2CC(=O)O)Oc2ccccc21 (centres unmarked) [Compound 74]
B. COC(=O)Cc1ccccc1OCCC1Oc2ccccc2N(CCC2CCCCC2)C1=O (centres unmarked) [Compound 65]
Q: Thinking about recorded Agonist Intrinsic Activity values, which is higher, A or B ? Refer to your chosen entry by its label in the reply.
Ans: A
(A: 22.0, B: 0.8)

----------
target: PPAR γ (Homo sapiens); construct: Following the challenge of the preadipocytes, cells may be lysed with lysis buffer; endogenous in cells; host or cells: preadipocytes; assay: aP2 Assay for Agonist (induction of aP2 mRNA production); type: cell-based; conditions: Table 1; fold increase over vehicle in induction of aP2 mRNA production; also: test concentration or dose not given here
PROPERTY_NAME: Agonist Intrinsic Activity

MOLECULE | Agonist Intrinsic Activity
O=C([O-])Cc1ccccc1OCCC1Oc2ccccc2N(Cc2cccc(C(F)(F)F)c2)C1=O.[Na+] (centres unmarked) [Compound 28] | 21.5
CCCNC(=O)CN1C(=O)C(CCOc2ccccc2CC(=O)O)Oc2ccccc21 (centres unmarked) [Compound 122] | 40.83
O=C(O)CCc1ccccc1OCCC1Oc2ccccc2N(Cc2cc(C(F)(F)F)cc(C(F)(F)F)c2)C1=O (centres unmarked) [Compound 42] | 2.1
O=C(O)Cc1ccccc1OCCC1Oc2ccccc2N(Cc2cc(C(F)(F)F)cc(C(F)(F)F)c2)C1=O (centres unmarked) [Compound 40] | 6.7
O=C(O)CCCCCN1C(=O)C(CCOc2ccccc2CC(=O)O)Oc2ccccc21 (centres unmarked) [Compound 101] | 3.0

A. O=C1C(CCOc2ccccc2C(F)(F)F)Oc2ccccc2N1Cc1cccc(C(F)(F)F)c1 (centres unmarked) [Compound 10]
B. O=C(O)CCCCN1C(=O)C(CCOc2ccccc2CC(=O)O)Oc2ccccc21 (centres unmarked) [Compound 60]
Q: Please let me know which one, A or B , has a lower measured Agonist Intrinsic Activity value. Refer to your chosen entry by its label in the reply.
Ans: A

----------
Target: PPAR γ (Homo sapiens)
Construct: Following the challenge of the preadipocytes, cells may be lysed with lysis buffer; endogenous in cells; host or cells: preadipocytes
Sequence (P37231 1-505): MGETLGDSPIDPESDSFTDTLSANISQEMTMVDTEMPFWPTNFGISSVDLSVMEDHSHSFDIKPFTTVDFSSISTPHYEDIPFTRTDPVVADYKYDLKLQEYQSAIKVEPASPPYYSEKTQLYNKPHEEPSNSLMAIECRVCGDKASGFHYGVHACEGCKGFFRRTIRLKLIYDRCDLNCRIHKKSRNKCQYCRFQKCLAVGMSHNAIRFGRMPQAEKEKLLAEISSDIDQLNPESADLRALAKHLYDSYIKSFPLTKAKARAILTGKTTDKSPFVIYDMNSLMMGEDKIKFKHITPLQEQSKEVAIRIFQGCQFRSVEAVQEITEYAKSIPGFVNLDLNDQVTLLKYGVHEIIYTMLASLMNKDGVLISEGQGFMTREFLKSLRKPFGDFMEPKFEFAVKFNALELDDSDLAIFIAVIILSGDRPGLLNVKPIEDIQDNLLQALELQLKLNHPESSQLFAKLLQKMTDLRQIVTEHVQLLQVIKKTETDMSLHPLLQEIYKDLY
Test: aP2 Assay for Agonist (induction of aP2 mRNA production); also: test concentration or dose not given here
Type: cell-based
Conditions: Table 1; fold increase over vehicle in induction of aP2 mRNA production
PROPERTY_NAME: Agonist Intrinsic Activity

Record excerpt, results attached:
MOLECULE | Agonist Intrinsic Activity
CC(=O)CCCCCN1C(=O)C(CCOc2ccccc2CC(=O)O)Oc2ccccc21 (centres unmarked) | 37.3
CC(F)(F)CCCCN1C(=O)C(CCOc2ccccc2CC(=O)O)Oc2ccccc21 (single isomer, unassigned) [Compound 89] | 42.0

A. CCCCCCCN1C(=O)C(CCOc2ccccc2CC(=O)OC)Oc2ccccc21 (centres unmarked)
B. CC(=O)CCCCN1C(=O)C(CCOc2ccccc2CC(=O)O)Oc2ccccc21 (centres unmarked)
C. COC(=O)c1ccccc1OCCC1Oc2ccccc2N(Cc2cccc(C)c2)C1=O (centres unmarked)
Q: Arrange these 3 molecules in increasing order of Agonist Intrinsic Activity. Form field (ranking): labels in requested order.
Ans: C, A, B
(C: 0.6, A: 6.2, B: 11.1)
